# methodSummary: IUF_NPC5_oligodendrocyte_differentiation_120hr: Leibniz Research Institute for Environmental Medicine (IUF) 120-hour Oligodendrocyte Differentiation Assay (NPC5) (AID 2284304);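 further: primary human fetal neural progenitor spheres plated to migrate and differentiate; share of O4-positive cells among Hoechst nuclei found by CNN image analysis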
Inconclusive results are not listed. Activity calls are given as the source filed them. How the source made its calls: active means hit-call score of the fitted dose curve at least 0.9, where 1 is the maximum; inconclusive means response in the unintended direction; inactive means score below 0.9.
Hi! Could you answer with just one of these? 1.0 for active, 0.0 for inactive

| compound | category |
| --- | --- |
| CN1COCN(Cc2cnc(Cl)s2)C1=N[N+](=O)[O-] | 0.0 |
| CCOP(=S)(OCC)OC(Cl)C(Cl)(Cl)Cl (stereo not given) | 0.0 |
| CCCCSP(=O)(SCCCC)SCCCC | 0.0 |
| CN(C)[C@@H]1C(=O)C(C(N)=O)=C(O)[C@@]2(O)C(=O)C3=C(O)c4c(O)cccc4[C@@](C)(O)[C@H]3[C@H](O)[C@@H]12 | 0.0 |
| CCCSP(=O)(OCC)SCCC | 0.0 |
| CC(C)N(C(=O)SCC(Cl)=C(Cl)Cl)C(C)C | 0.0 |
| COP(=O)(NC(C)=O)SC (stereo not given) | 0.0 |
| CCOP(=O)(NC(C)C)Oc1ccc(SC)c(C)c1 (stereo not given) | 1.0 |
| C[N+]1(C)CCCCC1 | 0.0 |

# evaluate next
Recorded call for CCOP(=O)(OCC)Oc1cc(C)nc(C(C)C)n1 ?
0.0

====

# Read-out: Transforming growth factor beta 1 (TGFb1), TGFB1 (gene 7040)
# methodSummary: BSK_KF3CT_TGFb1: BioMAP Diversity Plus: KF3CT Assay for Transforming growth factor beta 1 (TGFb1) Biomarker Activity (AID 2283072)
# testSettings: primary human keratinocytes with fibroblasts; actives raise or lower the signal
# Procedure: BSK_KF3CT is a cell-based, multiplexed-readout assay that uses keratinocytes and foreskin fibroblasts, a human skin primary cell co-culture, with measurements taken at 24 hours after chemical dosing in a 96-well plate.BSK_KF3CT_TGFb1 is an assay component measured in the BSK_KF3CT assay. It measures TGF-b1 antibody related to regulation of gene expression using ELISA technology.Data from the assay component BSK_KF3CT_TGFb1 was analyzed into 1 assay endpoint. […]
Calls of active or inactive are those of the source. The calls were made as follows: active = hit-call score of the fitted dose curve at least 0.9, where 1 is the maximum; inactive = score below 0.9.
Returns: one label drawn from 1 (yes) (active), 0 (no) (inactive)

Here are 5 compounds together with their reported answers.
| compound | category |
| --- | --- |
| CC(Oc1cccc(Cl)c1)C(=O)O (stereo not drawn) | 0 (no) |
| CCc1cccc(C)c1N(C(=O)CCl)C(C)COC (stereo not drawn) | 0 (no) |
| CCNc1nc(Cl)nc(NC(C)(C)C#N)n1 | 0 (no) |
| C[N+]1(C)CCCCC1 | 0 (no) |
| CNC(=O)Oc1cccc2c1OC(C)(C)O2 | 0 (no) |

// outcome(item) with item = Cc1nn(-c2cc(NS(C)(=O)=O)c(Cl)cc2Cl)c(=O)n1C(F)F
0 (no)

Per the assay record, what outcome was assigned to O=C(O)c1cc(Oc2ccc(C(F)(F)F)cc2Cl)ccc1[N+](=O)[O-] ?
0 (no)

Short answer needed: outcome of this test for CN(C)[C@@H]1C(=O)C(C(N)=O)=C(O)[C@@]2(O)C(=O)C3=C(O)c4c(O)cccc4[C@@](C)(O)[C@H]3[C@H](O)[C@@H]12 ?
0 (no)

// return assay outcome for CCOP(=S)(OCC)Oc1ccc2c(C)c(Cl)c(=O)oc2c1
0 (no)

Which result was noted for this compound in the test: CNC(=O)ON=C(C)SC
0 (no)

Outcome? CSc1nc(NC(C)C)nc(NC(C)C)n1
0 (no)

Hello, I am checking results. What call was entered for CC(=NC#N)N(C)Cc1ccc(Cl)nc1 ?
0 (no)

Test call, this compound: COP(=O)(OC)SCn1c(=O)oc2cc(Cl)cnc21
0 (no)

Field: outcome | Entry: CC[C@H](C)[C@H]1O[C@]2(C=C[C@@H]1C)C[C@@H]1C[C@@H](C/C=C(\C)[C@@H](O[C@H]3C[C@H](OC)[C@@H](O[C@H]4C[C@H](OC)[C@@H](NC)[C@H](C)O4)[C@H](C)O3)[C@@H](C)/C=C/C=C3\CO[C@@H]4[C@H](O)C(C)=C[C@@H](C(=O)O1)[C@]34O)O2
1 (yes)

Any idea what this test logged for O=c1ccc(=O)[nH][nH]1 ?
0 (no)

Tell me the assay call for CCCCSP(=O)(SCCCC)SCCCC please.
0 (no)

What was the test verdict on CN(C)NC(=O)CCC(=O)O ?
0 (no)

Name the outcome recorded for CCOP(=S)(OCC)OC(Cl)C(Cl)(Cl)Cl (stereo not drawn) in the assay.
0 (no)

What did the test return for CN1COCN(Cc2cnc(Cl)s2)C1=N[N+](=O)[O-] ?
0 (no)

Outcome? CNC(=O)ON=C(SC)C(=O)N(C)C
0 (no)

Call for entry C#CCC1=C(C)C(OC(=O)C2C(C=C(C)C)C2(C)C)CC1=O (stereo not drawn) :
0 (no)

What did the test return for C#CC(C)(C)NC(=O)c1cc(Cl)cc(Cl)c1 ?
0 (no)

Hey, what did the test say about CCOP(=O)(SC(C)CC)N1CCSC1=O (stereo not drawn) ?
0 (no)

What did this assay record as the result for Cc1cc(C2CC2)nc(Nc2ccccc2)n1 ?
0 (no)

Lab log entry: CSc1nnc(C(C)(C)C)c(=O)n1N — outcome as called in the assay?
0 (no)

Could you please tell me the result logged for Cc1ccn2nc(S(=O)(=O)Nc3c(F)cccc3F)nc2n1 in this assay?
0 (no)

How did this test come out for FC(F)C(F)(F)OCC(Cn1cncn1)c1ccc(Cl)cc1Cl (stereo not drawn) ?
0 (no)

I would be grateful if you could indicate the recorded call for CCOC(=O)CC(SP(=O)(OC)OC)C(=O)OCC (stereo not drawn) .
0 (no)

Ref: PubChem BioAssay (EPA / NIEHS)
